# assay_name: counter assay for TAg ATPase ADP read-out – biochemical, ADP-Hunter, fluorescence, counter-screen (AID 2501);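 also: purified T antigen ATPase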
# assay_setup: series mostly up to 100 µM
Hit rate of the full screen: of about 2,200 compounds, about 1,200 (55%) were called active. So high a share suggests a set chosen from earlier hits. Some of the results follow.
recorded_metric: IC50

Here is how some compounds turned out for IC50.
>>> df
                                   compound        meas_value
0             CSc1nc(-c2ccco2)nn1S(C)(=O)=O          inactive
1  CCN(c1ccccc1)S(=O)(=O)c1ccc(Cl)c(NC(=O)COC(=O)c2cc(O)c3ccccc3c2O)c1          inactive
2  Cc1onc(-c2c(F)cccc2Cl)c1C(=O)OCC(=O)NC(c1ccccc1)c1ccccc1          inactive
3                Oc1ccc(-c2cn3ccccc3n2)cc1O  5.62 µM (active)
4  O=C(O)CCCn1cc(NC(=O)COc2ccccc2[N+](=O)[O-])cn1          inactive
5           Cc1ccn2cc(-c3ccc(O)c(O)c3)nc2c1   7.1 µM (active)
6  Cc1ccc(S(=O)(=O)N2CCCOC2CNC(=O)C(=O)NCCc2c[nH]c3ccccc23)cc1 (stereo not drawn)          inactive
7             OCCc1c[nH]c2ccc(C(F)(F)F)cc12          inactive

Batch of 2 compounds: report IC50 for each.
1. Cc1nn(-c2ccccc2)c2[nH]c(=O)c(CNc3ccc(N4CCOCC4)cc3)cc12
2. O=C1c2ccccc2C(=O)N1CCc1c[nH]c2ccc(O)cc12

["3.77 µM (active)", "7.26 µM (active)"]
